protocol_text: Components of the Cytosolic LPS Sensing Pathway: Gene Identification via Genome-wide siRNA Screen;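 further: robust z of the log signal after scaling to non-targeting control siRNA wells of the plate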
condition_set: RAW264.7 macrophages, IL-1a HTRF, actives lie on both sides, screened at 100 nM (by protocol), cells primed 5 h with Pam3CSK4 first
Out of some 53,000 sequences screened, about 3,700 (7%) were called active. This excerpt belongs to a sample that is enriched for actives.
observable: z-score
Keep the answer to the number alone.

Task: What measured z-score goes with GCUCAAAUAACUCCACCACTT against Pola1 ?
Result: -1.73

Task: Another sequence: GGUAUUUUUUUCUCAGCCATT against Dhdh
Result: -0.937

Task: Input GGUGCAACCAGUGUGUGAUTT against St6galnac6
Result: 4.22

Task: And for GGAGUUGAUAAUAUGGUGGTT against Uck1 ?
Result: 0.712

Task: Query GGAGAUGAAAAGAGAAAUCTT against Cct6b next
Result: 2.41

Task: For GGGCAACUAUUGAUGAGGUTT against Acap3 then?
Result: -0.138

Task: Further, for GGUUAUGCAUUACUCUCUUTT against Prkdc ?
Result: 0.0207

Task: Ok, now CCACUGGACAGGAACAAAGTT against Rims1
Result: -1.2

Task: Next sequence up: GCAUAAUUCUAAAGACGGGTT against Zfp143
Result: -0.1

Task: And the next one, CCUCAGAACAAAUGAAAAUTT against Nlk ?
Result: -0.62

Task: Repeat with GCAGCAGUAAUGAUGGAUCTT against Ncoa3
Result: 2.47

Task: Lookup GCCUGAAAGGCCUCACAAATT against Eloa
Result: -0.72

The measured values listed here are drawn from PubChem BioAssay AID1508600.
